tested on: NCI-H929 cells; test: Antiproliferative activity against various tumor cells: NCI-H929; format: cell-based; details: Homo sapiens, NCI-H929, 72 h, read-out: Antiproliferative activity IC50 NCI-H929
quantity: IC50

Enter recorded IC50 with NCI-H929 cells for O=C1CCC(N2Cc3c(ccc(CNC(=O)c4ccc(Cl)cc4)c3F)C2=O)C(=O)N1 (stereo not shown) here.
1 to 10 nM

---

biological target: GSPT1 protein (Homo sapiens, UniProt P15170); construct: The whole cell lysate was prepared using a RIPA lysis buffer; endogenous in cells; host or cells: NB-4 cells; experiment: Degradation of GSPT1 protein in NB-4 cells (Western blot); format: cell-based; conditions: NB-4 cells, compound 1 μM, 6 h; read-out: GSPT1 degradation
Sequence (P15170 whole entry): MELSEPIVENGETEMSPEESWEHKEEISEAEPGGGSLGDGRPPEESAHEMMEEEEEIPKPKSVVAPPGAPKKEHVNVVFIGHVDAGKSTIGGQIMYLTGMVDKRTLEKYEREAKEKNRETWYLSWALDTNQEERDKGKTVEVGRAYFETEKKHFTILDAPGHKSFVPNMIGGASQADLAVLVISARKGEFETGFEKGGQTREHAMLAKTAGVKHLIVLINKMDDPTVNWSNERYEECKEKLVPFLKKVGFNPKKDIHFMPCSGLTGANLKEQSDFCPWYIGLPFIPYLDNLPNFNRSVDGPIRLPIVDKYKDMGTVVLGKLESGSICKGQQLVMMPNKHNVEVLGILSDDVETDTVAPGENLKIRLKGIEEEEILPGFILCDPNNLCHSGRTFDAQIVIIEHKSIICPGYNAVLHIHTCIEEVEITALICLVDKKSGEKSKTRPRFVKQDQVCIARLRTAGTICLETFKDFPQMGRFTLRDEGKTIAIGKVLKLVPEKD
quantity: inhibition at 1 µM

Examples with their reported inhibition at 1 µM follow.
O=C1CCC(N2Cc3c(ccc(CNC(=O)c4cc5cc(F)ccc5o4)c3F)C2=O)C(=O)N1 (stereo not drawn) [FDAB-46] ... > 80%
Cc1nc2cc(C(=O)NCc3cc4c(cc3F)C(=O)N(C3CCC(=O)NC3=O)C4)ccc2s1 (stereo not drawn) [FDAB-58] ... > 80%
O=C1CCC(N2Cc3c(ccc(CNC(=O)c4ccc(F)cc4)c3F)C2=O)C(=O)N1 (stereo not drawn) [FDAB-49] ... < 25%
O=C1CCC(N2Cc3c(ccc(CNC(=O)C4CC5(CCC5)C4)c3F)C2=O)C(=O)N1 (stereo not drawn) [FDAB-156] ... > 80%

Could you please provide reported inhibition at 1 µM for C=Cc1ccc(C(=O)NCc2ccc3c(c2F)CN(C2CCC(=O)NC2=O)C3=O)cc1 (stereo not drawn) [FDAB-95] ? Thanks!
> 80%

Could you please provide reported inhibition at 1 µM for NCc1cc2c(cc1Cl)C(=O)N(C1CCC(=O)NC1=O)C2 (stereo not drawn) [FDAB-15] ? Thanks!
< 25%

Could you please provide reported inhibition at 1 µM for O=C1CCC(N2Cc3cc(CNC(=O)c4cc5cc(F)ccc5o4)c(Cl)cc3C2=O)C(=O)N1 (stereo not drawn) [FDAB-73] ? Thanks!
< 25%

Could you please provide reported inhibition at 1 µM for O=C(C#Cc1ccc(-c2ccccc2)cc1)NCc1ccc2c(c1F)CN(C1CCC(=O)NC1=O)C2=O (stereo not drawn) [FDAB-147] ? Thanks!
> 80%

Could you please provide reported inhibition at 1 µM for O=C(Cc1c[nH]c2cccc(Br)c12)NCc1ccc2c(c1F)CN(C1CCC(=O)NC1=O)C2=O (stereo not drawn) [FDAB-135] ? Thanks!
> 80%

Could you please provide reported inhibition at 1 µM for O=C1CCC(N2Cc3c(ccc(CNC(=O)c4ccc(CO)cc4)c3F)C2=O)C(=O)N1 (stereo not drawn) [FDAB-108] ? Thanks!
< 25%

---

molecular target: GSPT1 protein (Homo sapiens, UniProt P15170); construct: The whole cell lysate was prepared using a RIPA lysis buffer; endogenous in cells; host or cells: NB-4 cells; assay: Degradation of GSPT1 protein in NB-4 cells (Western blot); type: cell-based; settings: NB-4 cells, compound 1 μM, 6 h; read-out: GSPT1 degradation
quantity: inhibition at 1 µM

Examples with their reported inhibition at 1 µM follow.
O=C1CCC(N2Cc3c(ccc(CNC(=O)c4cc5ccccc5o4)c3F)C2=O)C(=O)N1 (stereo not shown) [FDAB-45] ... > 80%
CCCCCCCCCCCCSC(=S)SC(C)(C#N)CCC(=O)NCc1ccc2c(c1F)CN(C1CCC(=O)NC1=O)C2=O (stereo not shown) [FDAB-164] ... > 80%
N#Cc1ccc2c(c1Cl)CN(C1CCC(=O)NC1=O)C2=O (stereo not shown) [FDAB-10] ... < 25%
O=C1CCC(N2Cc3cc(CNC(=O)c4ccc(Cl)c(F)c4)c(F)cc3C2=O)C(=O)N1 (stereo not shown) [FDAB-53] ... > 80%

Enter recorded inhibition at 1 µM with GSPT1 protein (Homo sapiens, UniProt P15170) for O=C1CCC(N2Cc3c(CNC(=O)C(F)(F)c4ccc(Cl)cc4)cc(F)cc3C2=O)C(=O)N1 (stereo not shown) [FDAB-171] here.
< 25%

Enter recorded inhibition at 1 µM with GSPT1 protein (Homo sapiens, UniProt P15170) for CC(C)(C)OC(=O)NCc1cc2c(cc1Cl)C(=O)N(C1CCC(=O)NC1=O)C2 (stereo not shown) [FDAB-14] here.
< 25%

Enter recorded inhibition at 1 µM with GSPT1 protein (Homo sapiens, UniProt P15170) for O=C1CCC(N2Cc3cc(CNC(=O)c4ccc(Cl)cn4)c(F)cc3C2=O)C(=O)N1 (stereo not shown) [FDAB-56] here.
< 25%

Enter recorded inhibition at 1 µM with GSPT1 protein (Homo sapiens, UniProt P15170) for O=C1CCC(N2Cc3c(ccc(CNC(=O)c4ccc(Cl)c(F)c4)c3F)C2=O)C(=O)N1 (stereo not shown) [FDAB-116] here.
> 80%

Enter recorded inhibition at 1 µM with GSPT1 protein (Homo sapiens, UniProt P15170) for N#Cc1cc2c(cc1Cl)C(=O)N(C1CCC(=O)NC1=O)C2 (stereo not shown) [FDAB-13] here.
< 25%

Enter recorded inhibition at 1 µM with GSPT1 protein (Homo sapiens, UniProt P15170) for O=C1CCC(N2Cc3c(ccc(CNC(=O)c4ccc(Cl)cc4)c3Cl)C2=O)C(=O)N1 (stereo not shown) [FDAB-70] here.
25 to 50%

Enter recorded inhibition at 1 µM with GSPT1 protein (Homo sapiens, UniProt P15170) for O=C(CCCCN1CCCCC1)NCc1ccc2c(c1F)CN(C1CCC(=O)NC1=O)C2=O (stereo not shown) [FDAB-159] here.
< 25%

Enter recorded inhibition at 1 µM with GSPT1 protein (Homo sapiens, UniProt P15170) for Cc1ccc(C(=O)NCc2ccc3c(c2Cl)CN(C2CCC(=O)NC2=O)C3=O)cc1F (stereo not shown) [FDAB-122] here.
< 25%

Enter recorded inhibition at 1 µM with GSPT1 protein (Homo sapiens, UniProt P15170) for O=C(C#Cc1ccc(Cl)cc1)NCc1ccc2c(c1F)CN(C1CCC(=O)NC1=O)C2=O (stereo not shown) [FDAB-145] here.
> 80%

Enter recorded inhibition at 1 µM with GSPT1 protein (Homo sapiens, UniProt P15170) for O=C1CCC(N2Cc3c(ccc(CNC(=O)c4ccc5cc6ccccc6cc5c4)c3F)C2=O)C(=O)N1 (stereo not shown) [FDAB-87] here.
< 25%

Enter recorded inhibition at 1 µM with GSPT1 protein (Homo sapiens, UniProt P15170) for Cc1ccc(C(=O)NCc2ccc3c(c2F)CN(C2CCC(=O)NC2=O)C3=O)cc1 (stereo not shown) [FDAB-65] here.
> 80%

Enter recorded inhibition at 1 µM with GSPT1 protein (Homo sapiens, UniProt P15170) for CC(C)c1ccc(C(=O)NCc2ccc3c(c2F)CN(C2CCC(=O)NC2=O)C3=O)cc1 (stereo not shown) [FDAB-93] here.
> 80%

Enter recorded inhibition at 1 µM with GSPT1 protein (Homo sapiens, UniProt P15170) for O=C(CCc1cccc2ccccc12)NCc1ccc2c(c1F)CN(C1CCC(=O)NC1=O)C2=O (stereo not shown) [FDAB-138] here.
> 80%

---

Test system: MOLM-13 cells
Assay: Antiproliferative effect alone and in combination with azacitidine against MOLM-13 cells
Type: cell-based
Conditions: Homo sapiens, MOLM-13, 72 h, MOLM-13 cells, 72 h, compound alone
Description: MOLM-13 cells in the logarithmic growth phase were diluted in a medium RPMI+[…], and NCI-H929 cells were diluted in a medium RPMI+10% FBS. The cells were plated at 4,000 cells/well in 96-well whole black plates (WHB) with 50 μL/well. After plating, the plates were incubated in an incubator at 5% CO2 and 37° C. for 24 h before the compounds were added. […] The luminescence value was measured at room temperature by the GloMax navigator (Promega GM2010). […]
quantity: pIC50
Interpret pIC50 as the negative base-10 log of the concentration measured in mol/L.

Could you please provide reported pIC50 for Cc1ccc(C(=O)NCc2ccc3c(c2F)CN(C2CCC(=O)NC2=O)C3=O)c(F)c1 (stereo not shown) ? Thanks!
6.61

---

Target: GSPT1 protein (Homo sapiens)
Construct: The whole cell lysate was prepared using a RIPA lysis buffer; endogenous in cells; host or cells: NB-4 cells
Test: Degradation of GSPT1 protein in NB-4 cells (Western blot)
Format: cell-based
Settings: NB-4 cells, compound 1 μM, 6 h; read-out: GSPT1 degradation
Protocol: 150 μL of DMSO and the compounds (1 μM) were added, and the mixture was incubated in an incubator at 5% CO2 and 37° C. for 6 h. The cells were centrifuged, and the culture medium was discarded. PBS was added for washing and then discarded. The whole cell lysate was prepared using a RIPA lysis buffer containing a protease inhibitor cocktail and a phosphatase inhibitor, and incubated on ice for 30 min. The mixture was centrifuged, and the cell debris was discarded. […]
quantity: inhibition at 1 µM

Cc1ccc(C(=O)NCc2ccc3c(c2F)CN(C2CCC(=O)NC2=O)C3=O)cc1N (stereo not drawn) [FDAB-112] ... > 80%
CCCCCCCCCCCCSC(=S)SC(C)(C)C(=O)NCc1ccc2c(c1F)CN(C1CCC(=O)NC1=O)C2=O (stereo not drawn) [FDAB-163] ... < 25%
O=C1CCC(N2Cc3c(ccc(CNC(=O)c4ccc(Cl)cc4F)c3Cl)C2=O)C(=O)N1 (stereo not drawn) [FDAB-119] ... > 80%
CN(C)c1ccc(C(=O)NCc2ccc3c(c2F)CN(C2CCC(=O)NC2=O)C3=O)cc1 (stereo not drawn) [FDAB-86] ... > 80%
O=C1CCC(N2Cc3cc(CNC(=O)c4ccccn4)c(F)cc3C2=O)C(=O)N1 (stereo not drawn) [FDAB-29] ... < 25%

Alright, here's another compound for you.
Could you please provide reported inhibition at 1 µM for O=C(C#CC1CC1)NCc1cc2c(cc1F)C(=O)N(C1CCC(=O)NC1=O)C2 (stereo not drawn) [FDAB-64] ? Thanks!
50 to 80%
